pKi: −log10 of the molar value.
The molecules below have reported pKi for PKA (Homo sapiens, UniProt P17612).

Past entries and their recorded results:
CCN(CC)S(=O)(=O)c1cccc(CC(=O)Nc2nnc(-c3c[nH]c4ncccc34)s2)c1 | 5.30 to 6.30
O=C(Nc1nc(-c2c[nH]c3ncccc23)cs1)C1CCCO1 (stereo not drawn) | > 6.30

Now for another entry.
Which pKi is reported for this molecule? O=C(Cc1cccc(OCCCC2CCNCC2)c1)N(c1nc(-c2c[nH]c3ncccc23)cs1)C1CC1
5.30 to 6.30

FYI, the data here is from patent US7514448B2.
